test system: Escherichia coli TOP10; test: shrunken log2 fold change of peptide-encoding DNA abundance (4.5 h post-induction vs induction); higher = less antimicrobial activity (less host growth inhibition); details: time post-induction: 4.5 h; library: site-saturation at positions 5, 18, 19, 20;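 also: peptides expressed intracellularly from a pBAD plasmid library in pooled LB shake-flask culture, induced with 0.3% L-arabinose, DNA abundance read by NGS, three biological replicates, DESeq2 with apeglm shrinkage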
parameter measured: shrunken log2 fold change

[[record]]
sequence_data = "RRIRPRPPRLPRPRPRPYCIPRP"
recorded_result = -0.654

[[record]]
sequence_data = "RRIRSRPPRLPRPRPRPAWQPRP"
recorded_result = 0.0367

[[record]]
sequence_data = "RRIRARPPRLPRPRPRPDEQPRP"
recorded_result = 0.0992

[[record]]
sequence_data = "RRIRKRPPRLPRPRPRPICSPRP"
recorded_result = "-9.46e-05"

[[record]]
sequence_data = "RRIRPRPPRLPRPRPRPIRAPRP"
recorded_result = -0.106

[[record]]
sequence_data = "RRIRLRPPRLPRPRPRPWQIPRP"
recorded_result = 0.019

[[record]]
sequence_data = "RRIRYRPPRLPRPRPRPTGKPRP"
recorded_result = 0.019


Origin of measurements: the supplement of paper PMC9112550
